Hello, the source for this data is patent US5847047A, in case you need it.

Tested on: human erythrocytes
Where no end group is shown, it is not given here.
Quantity measured: % Hemolysis at >6 mg/mL (%)
Give a bare numeral; the unit % is implied.

Example entries begin here.
PepsynK-LKPG2K: peptide SEQ ID NO:14 covalently linked to polyamide resin PepSyn K via non-cleavable EDA linker (LKLLKKLLKLLKKLGGK; also: covalently linked to PepSyn K resin via EDA linker): 1.2
Pepsynk-LKP: peptide SEQ ID NO:8 covalently linked to polyamide resin PepSyn K via non-cleavable EDA linker (LKKLLKLLKKLLKL; also: covalently linked to PepSyn K resin via EDA linker): 0.9
PepsynK-LKPGK: peptide SEQ ID NO:13 covalently linked to polyamide resin PepSyn K via non-cleavable EDA linker (LKLLKKLLKLLKKLGK; also: covalently linked to PepSyn K resin via EDA linker): 0.7

Attention now turns to another entry.
## Input Give a short answer stating reported % Hemolysis at >6 mg/mL for PepsynK-LKPG3K: peptide SEQ ID NO:15 covalently linked to polyamide resin PepSyn K via non-cleavable EDA linker (LKLLKKLLKLLKKLGGGK; also: covalently linked to PepSyn K resin via EDA linker) .
## Output 12.7
